- Assayed Target: mouse melanocortin-3 receptor (mouse, UniProt P33033 1-323)
- Sequence (P33033 whole entry): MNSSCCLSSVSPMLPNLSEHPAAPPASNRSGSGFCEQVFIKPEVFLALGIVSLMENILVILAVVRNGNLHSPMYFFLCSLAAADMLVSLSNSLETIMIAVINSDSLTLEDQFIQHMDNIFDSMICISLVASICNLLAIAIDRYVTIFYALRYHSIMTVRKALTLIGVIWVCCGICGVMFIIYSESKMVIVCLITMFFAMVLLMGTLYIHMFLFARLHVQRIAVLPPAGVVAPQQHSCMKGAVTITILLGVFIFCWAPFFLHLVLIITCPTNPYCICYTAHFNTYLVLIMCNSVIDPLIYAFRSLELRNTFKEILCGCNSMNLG
- Assay Method Text: cell-based or functional assay
Square brackets hold non-standard residues; d marks the D form.

| Binder | antagonist pA2 (Schild, agonist NDP-MSH) |
| --- | --- |
| cyclo(PRFFHAF[dP]) (SMILES C[C@@H]1NC(=O)[C@H](Cc2c[nH]cn2)NC(=O)[C@H](Cc2ccccc2)NC(=O)[C@H](Cc2ccccc2)NC(=O)[C@H](CCCNC(=N)N)NC(=O)[C@@H]2CCCN2C(=O)[C@H]2CCCN2C(=O)[C@H](Cc2ccccc2)NC1=O) [c[Pro-Arg-Phe-Phe-His-Ala-Phe-DPro]] | 6.46 |
| cyclo(PRFFNLF[dP]) (SMILES CC(C)C[C@@H]1NC(=O)[C@H](CC(N)=O)NC(=O)[C@H](Cc2ccccc2)NC(=O)[C@H](Cc2ccccc2)NC(=O)[C@H](CCCNC(=N)N)NC(=O)[C@@H]2CCCN2C(=O)[C@H]2CCCN2C(=O)[C@H](Cc2ccccc2)NC1=O) [c[Pro-Arg-Phe-Phe-Asn-Leu-Phe-DPro]] | < 5.5 |
| cyclo(PRFFVAF[dP]) [c[Pro-Arg-Phe-Phe-Val-Ala-Phe-DPro]] | < 5.5 |
| RCVRLHESCLGQQVPCCDPCATCYCRFFNAFCYCRKLGTAMNPCSRT (ligand, human, UniProt O00253 86-132, looked up, range 86-132; also called C-terminal domain of AGRP) [hAGRP(86-132)] | 8.7 |
| cyclo(PRFFDAF[dP]) [c[Pro-Arg-Phe-Phe-Asp-Ala-Phe-DPro]] | < 5.5 |
| PRFFXAFP (head-to-tail cyclic; Abu at 5; DPro at 8) [c[Pro-Arg-Phe-Phe-Abu-Ala-Phe-DPro]] | < 5.5 |
| cyclo(PRFFWAF[dP]) (SMILES C[C@@H]1NC(=O)[C@H](Cc2c[nH]c3ccccc23)NC(=O)[C@H](Cc2ccccc2)NC(=O)[C@H](Cc2ccccc2)NC(=O)[C@H](CCCNC(=N)N)NC(=O)[C@@H]2CCCN2C(=O)[C@H]2CCCN2C(=O)[C@H](Cc2ccccc2)NC1=O) [c[Pro-Arg-Phe-Phe-Trp-Ala-Phe-DPro]] | 5.7 |
